// data source = PubChem BioAssay (NCI)

Test system: U251 CNS
Choose the fitting class; nothing outside 1.0 = active, 0.0 = inactive is accepted.

- compound: "C[C@@]12CCC[C@@](C)(C(=O)O)C1CC[C@]13CC(=O)[C@](CO)(C1)[C@@H](O)CC32 (some centres not stated)"
  category-label: 0.0
- compound: "Cn1c(=O)c(Oc2ccc(F)cc2)cc2cnc(NC3CCOCC3)nc21"
  category-label: 0.0
- compound: "BrCc1cccc(C[P+](c2ccccc2)(c2ccccc2)c2ccccc2)c1"
  category-label: 0.0

Please find the next compound below.
IN: # outcome recorded in this test, key = `CCN(Cc1ccc(F)cc1)c1ccc(CO)c(Br)c1`
OUT: 1.0
